settings: in acetone, 313.15 K
readout: solubility (mole fraction)
Give bare numbers.

Looking for the measured solubility (mole fraction) of CC(=O)[C@@]1(O)CC[C@H]2[C@@H]3CCC4=CC(=O)CC[C@]4(C)[C@H]3C(O)C[C@@]21C (stereo in doubt) , can you help? 0.0123

###

settings: in chloroform, 308.15 K
readout: solubility (mole fraction)

Looking for the measured solubility (mole fraction) of CC(=O)[C@@]1(O)CC[C@H]2[C@@H]3CCC4=CC(=O)CC[C@]4(C)[C@H]3C(O)C[C@@]21C (stereo in doubt) , can you help? 0.0172

###

details: in DMF, 303.15 K
readout: solubility (mole fraction)
Give bare numbers.

Looking for the measured solubility (mole fraction) of CC(=O)[C@@]1(O)CC[C@H]2[C@@H]3CCC4=CC(=O)CC[C@]4(C)[C@H]3C(O)C[C@@]21C (stereo in doubt) , can you help? 0.1

###

conditions: in methanol, 313.15 K
readout: solubility (mole fraction)
Give bare numbers.

Looking for the measured solubility (mole fraction) of CC(=O)[C@@]1(O)CC[C@H]2[C@@H]3CCC4=CC(=O)CC[C@]4(C)[C@H]3C(O)C[C@@]21C (stereo in doubt) , can you help? 0.0249

###

settings: in acetone, 293.15 K
readout: solubility (mole fraction)
One number for each entry.

Looking for the measured solubility (mole fraction) of CC(=O)[C@@]1(O)CC[C@H]2[C@@H]3CCC4=CC(=O)CC[C@]4(C)[C@H]3C(O)C[C@@]21C (stereo in doubt) , can you help? 0.00859

###

conditions: in water, 288.15 K
readout: solubility (mole fraction)
Numbers only.

Looking for the measured solubility (mole fraction) of CC(=O)[C@@]1(O)CC[C@H]2[C@@H]3CCC4=CC(=O)CC[C@]4(C)[C@H]3C(O)C[C@@]21C (stereo in doubt) , can you help? 2.08e-05

###

conditions: in water, 303.15 K
readout: solubility (mole fraction)

Looking for the measured solubility (mole fraction) of CC(=O)[C@@]1(O)CC[C@H]2[C@@H]3CCC4=CC(=O)CC[C@]4(C)[C@H]3C(O)C[C@@]21C (stereo in doubt) , can you help? 3.47e-05

###

conditions: in n-propanol, 303.15 K
readout: solubility (mole fraction)
Give bare numbers.

Looking for the measured solubility (mole fraction) of CC(=O)[C@@]1(O)CC[C@H]2[C@@H]3CCC4=CC(=O)CC[C@]4(C)[C@H]3C(O)C[C@@]21C (stereo in doubt) , can you help? 0.0143

###

conditions: in methanol, 298.15 K
readout: solubility (mole fraction)
Answers are plain numbers.

Looking for the measured solubility (mole fraction) of CC(=O)[C@@]1(O)CC[C@H]2[C@@H]3CCC4=CC(=O)CC[C@]4(C)[C@H]3C(O)C[C@@]21C (stereo in doubt) , can you help? 0.0181

###

settings: in acetone, 283.15 K
readout: solubility (mole fraction)

Looking for the measured solubility (mole fraction) of CC(=O)[C@@]1(O)CC[C@H]2[C@@H]3CCC4=CC(=O)CC[C@]4(C)[C@H]3C(O)C[C@@]21C (stereo in doubt) , can you help? 0.00761

###

conditions: in acetone, 303.15 K
readout: solubility (mole fraction)
Answers are plain numbers.

Looking for the measured solubility (mole fraction) of CC(=O)[C@@]1(O)CC[C@H]2[C@@H]3CCC4=CC(=O)CC[C@]4(C)[C@H]3C(O)C[C@@]21C (stereo in doubt) , can you help? 0.0106

Cited source: BigSolDB 2.1
